Tested on: HCT-116
assay_info: […] inhibition of cellular activity in HCT116 colony formation assay
Assay type: functional, Homo sapiens
measurement_label: IC50
Quote the value and follow it with the unit of measurement.

### Prompt Looking for the measured IC50 of C=C(C(=O)N1C[C@H]2[C@@]3(c4ccc(Br)cc4)CC[C@H](c4ccccc43)[C@@]2(C(=O)O)C1)c1ccccc1OC , can you help?
### Response 59 nM

###

Quick reference for pKi among some compounds
test_target: Protein farnesyltransferase (Homo sapiens, UniProt P49354+P49356)
assay_info: Inhibition of farnesyltransferase by Ras/SPA assay
# log scale: pKi equals minus log10 of the concentration in mol/L

Worked examples follow.
>>> assay_value("C=C(C(=O)N1C[C@H]2[C@@]3(c4ccc5c(c4)CCO5)CC[C@H](c4ccccc43)[C@@]2(C(=O)O)C1)c1ccccc1OC")
6.38
>>> assay_value("COc1ccccc1CC(=O)N1C[C@H]2[C@@]3(c4ccccc4)CC[C@H](c4ccccc43)[C@@]2(C(=O)O)C1")
6.85
>>> assay_value("COc1ccccc1CC(=O)N1C[C@H]2[C@@]3(c4ccccc4)CC[C@](O)(c4ccccc43)[C@@]2(C(=O)O)C1")
6.60
>>> assay_value("CONC(=O)[C@]12CN(C(=O)Cc3ccccc3OC)C[C@H]1[C@@]1(c3ccccc3)CC[C@@H]2c2ccccc21")
6.38
>>> assay_value("COc1ccccc1CC(=O)N1C[C@H]2[C@@]3(c4ccccc4)CC[C@H](c4c(O)cccc43)[C@@]2(C(=O)O)C1")
4.30

### Prompt Request body: readout pKi, system Protein farnesyltransferase (Homo sapiens, UniProt P49354+P49356), query COc1ccccc1CC(=O)N1C[C@@H]2[C@@H]3CC[C@@](c4ccccc4)(c4ccccc43)[C@@H]2C1 . Return the value.
### Response 4.40

### Prompt Entry C=C(C(=O)N1C[C@H]2[C@@]3(c4ccc(OCC(=O)O)cc4)CC[C@H](c4ccccc43)[C@@]2(C(=O)O)C1)c1ccccc1OC , system Protein farnesyltransferase (Homo sapiens, UniProt P49354+P49356): what pKi was measured?
### Response 4.59

### Prompt What pKi appears in the records for this compound with Protein farnesyltransferase (Homo sapiens, UniProt P49354+P49356)? O=C(Cc1ccccc1OCc1ccccc1)N1C[C@H]2[C@@]3(c4ccccc4)CC[C@H](c4ccccc43)[C@@]2(C(=O)O)C1
### Response 4.49

### Prompt Record lookup: for Protein farnesyltransferase (Homo sapiens, UniProt P49354+P49356), what pKi belongs to COc1ccccc1CC(=O)N1C[C@H]2[C@@]3(c4ccccc4)CC[C@H](c4ccccc43)[C@@]2(C(=O)NCC(=O)O)C1 ?
### Response 6.13

### Prompt Notebook entry, Protein farnesyltransferase (Homo sapiens, UniProt P49354+P49356) assay: pKi of C=C(C(=O)N1C[C@H]2[C@@]3(c4ccccc4)CC[C@H](c4ccccc43)[C@@]2(C(=O)O)C1)c1ccccc1OC (racemic) = ?
### Response 7.60

###

assay_info: Binding affinity against Ras SPA enzyme
measurement_label: pKi
# reply with the number alone; pKi is -log10 of concentration in mol/L

>>> assay_value("COc1ccccc1CC(=O)N1C[C@H]2[C@@]3(c4ccccc4)CC[C@H](c4ccccc43)[C@@]2(C(=O)NN)C1")
5.61
>>> assay_value("COc1ccccc1CC(=O)N1C[C@H]2[C@@]3(c4ccccc4)CC[C@H](c4ccccc43)[C@@]2(NC(=O)OCc2ccccc2)C1")
4.00
>>> assay_value("COc1ccccc1CC(=O)N1C[C@H]2[C@@]3(c4ccccc4)CC[C@H](c4ccccc43)[C@@]2(C(=O)N[C@H](C)c2ccccc2)C1")
5.68

### Prompt Query: pKi; subject: COCCCC(=O)N1C[C@H]2[C@@]3(c4ccccc4)CC[C@H](c4ccccc43)[C@@]2(C(=O)O)C1
### Response 4.00
